Could you please report measured log Pow* (P′ 10%) for the items listed next?
experiment: log Pow* calculated by Formula 2 from log Pow and the polarity parameter P′(x) of the ethanol/water mixture; settings: solvent ethanol, proportion 10%
Keep it simple and answer with nothing but the number.

Which value of log Pow* (P′ 10%) has been reported for CC(=O)/C=C/C1C(C)=CCCC1(C)C (stereo not drawn) [alpha-ionone] in the records?
3.63

Which value of log Pow* (P′ 10%) has been reported for CC/C=C\CC1CCCC(=O)O1 (stereo not shown) [Jasmine lactone] in the records?
2.11

Which value of log Pow* (P′ 10%) has been reported for OCc1ccco1 [Furfuryl alcohol] in the records?
−2.92

Which value of log Pow* (P′ 10%) has been reported for CCCCCC1CCCC(=O)O1 (stereo not shown) [delta decalactone] in the records?
2.05

Which value of log Pow* (P′ 10%) has been reported for C=C(C)[C@@H]1CCC2=CC(=O)C[C@@H](C)[C@]2(C)C1 [Nootkatone] in the records?
3.88

Which value of log Pow* (P′ 10%) has been reported for CCC/C=C/C=O [2E-hexenal] in the records?
1.05

Which value of log Pow* (P′ 10%) has been reported for Oc1ccccc1 [Phenol] in the records?
0.87

Which value of log Pow* (P′ 10%) has been reported for CCC(C)CO (stereo not shown) [2-mebutanol, 2-methylbutanol] in the records?
0.59

Which value of log Pow* (P′ 10%) has been reported for CCCCCCC1CCC(=O)O1 (stereo not shown) [gamma-decalactone] in the records?
2.00

Which value of log Pow* (P′ 10%) has been reported for CS [Methylmercaptan] in the records?
−0.73

Which value of log Pow* (P′ 10%) has been reported for CC(=O)C(C)=O [Diacetyl] in the records?
−2.00

Which value of log Pow* (P′ 10%) has been reported for CC(=O)/C=C/C1=C(C)CCCC1(C)C [beta-ionone] in the records?
3.62

Which value of log Pow* (P′ 10%) has been reported for SCc1ccco1 [Furfurylthiol-2] in the records?
1.43

Which value of log Pow* (P′ 10%) has been reported for C/C=C/C(=O)C1=C(C)C=CCC1(C)C [beta-damascenone] in the records?
4.20

Which value of log Pow* (P′ 10%) has been reported for CC1=CCC(C(C)(C)S)CC1 (stereo not shown) [p-menthenethiol-1,8] in the records?
3.82

Which value of log Pow* (P′ 10%) has been reported for O=Cc1ccccc1 [Benzaldehyde] in the records?
1.09

Which value of log Pow* (P′ 10%) has been reported for O=Cc1ccco1 [Furfural] in the records?
−0.50

Which value of log Pow* (P′ 10%) has been reported for CCOC(=O)C(C)CC (stereo not shown) [Ethylmethylbutyrate-2] in the records?
2.00

Which value of log Pow* (P′ 10%) has been reported for CCCCOC(C)=O [Butylacetate] in the records?
1.26

Which value of log Pow* (P′ 10%) has been reported for CCC/C=C/CO [2E-hexenol] in the records?
1.24

Which value of log Pow* (P′ 10%) has been reported for c1ccc2[nH]ccc2c1 [Indole] in the records?
1.72

Which value of log Pow* (P′ 10%) has been reported for CCCCCC(=O)OC [Methylcapronate] in the records?
1.91

----------
assay: log Pow* calculated by Formula 2 from log Pow and the polarity parameter P′(x) of the ethanol/water mixture
assay metric: log Pow* (P′ 100%)
Keep it simple and answer with nothing but the number.

Which value of log Pow* (P′ 100%) has been reported for CC/C=C\CC1C(=O)CCC1CC(=O)OC (centres unmarked) [Methyl jasmonate] in the records?
0.09

Which value of log Pow* (P′ 100%) has been reported for CCCCCCOC(C)=O [Hexylacetate] in the records?
1.31

Which value of log Pow* (P′ 100%) has been reported for C=CC(C)(O)CCC=C(C)C (centres unmarked) in the records?
1.97

Which value of log Pow* (P′ 100%) has been reported for CCCCCCCC=O in the records?
1.61

Which value of log Pow* (P′ 100%) has been reported for CC(C)CCO in the records?
−2.08

Which value of log Pow* (P′ 100%) has been reported for CCCCCC=O in the records?
−0.21

Which value of log Pow* (P′ 100%) has been reported for CC(C)=CCCC(C)=CC=O in the records?
1.81

Which value of log Pow* (P′ 100%) has been reported for CCCSSC [Methylpropyldisulfide] in the records?
1.31

Which value of log Pow* (P′ 100%) has been reported for CCCSSCCC [Dipropyldisulfide] in the records?
2.80

Which value of log Pow* (P′ 100%) has been reported for C=Cc1ccc(O)c(OC)c1 in the records?
0.75

Which value of log Pow* (P′ 100%) has been reported for CCCC(=O)OCC [Ethylbutyrate] in the records?
−0.66
